test: in vivo; details: rhesus monkey, iv
Readout Kind: Cmax (ng/mL)
Field: numeric (ng/mL). Do not append units.

What does the record list as Cmax for CCC(CC)COC(=O)[C@H](C)N[P@](=O)(OC[C@H]1O[C@@](C#N)(c2ccc3c(N)ncnn23)[C@H](O)[C@@H]1O)Oc1ccccc1 [RDV] ?
3350

* * *

assay: clinical; settings: both, human, in vivo, 100 mg
Readout Kind: Cmax (ng/mL)
State just the number; it will be interpreted in ng/mL.

{"columns": ["Molecule", "U", "Observed"],
 "data": [
  ["CCC(CC)COC(=O)[C@H](C)N[P@](=O)(OC[C@H]1O[C@@](C#N)(c2ccc3c(N)ncnn23)[C@H](O)[C@@H]1O)Oc1ccccc1 [RDV]", "ng/mL", 2230]
]}

Could you now consider this next molecule?
Given the molecule N#C[C@@]1(c2ccc3c(N)ncnn23)O[C@H](CO)[C@@H](O)[C@H]1O [GS-441524] , what is its reported Cmax?
145
